Target entity: T1, recombinant His6-tagged extracellular domain of human Clec4C (C-type lectin domain family 4, member C) (human, UniProt Q8WTT0 44-213)
T1 construct: Same antigen for immunisation, panning and ELISA; also called His-Clec4C(EC); pMET7-SIgK-His-Clec4C(EC)
T1 sequence: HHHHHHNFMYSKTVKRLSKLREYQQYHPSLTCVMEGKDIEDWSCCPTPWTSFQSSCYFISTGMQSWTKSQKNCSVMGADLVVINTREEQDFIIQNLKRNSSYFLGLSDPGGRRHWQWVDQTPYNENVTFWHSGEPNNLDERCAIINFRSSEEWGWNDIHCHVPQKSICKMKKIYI
Method summary: ELISA, antigen-coated vs uncoated blocked wells
ELISA ratio coated/uncoated values by entry
Measured attribute: ELISA ratio coated/uncoated

>  <Binder>
1CL21 (VHH, pMECS VHH-HA-His6; TG1 periplasmic extract) VHH: QVQLQESGGGLVRPGGSLRLSCVGSGSTFRHHAMAWFRQTTGKEREFVSAINDHGTKTRYSDSVRGRFTISRDNDENMVYLQMDNLRPEDTAVYSCAAGPLVDYLETVPVVYTYWGQGTQVTVSS

>  <Measured attribute>
ELISA ratio coated/uncoated

>  <Test result>
11.1

$$$$
>  <Binder>
1CL81 (VHH, pMECS VHH-HA-His6; TG1 periplasmic extract) VHH: QVQLQESGGGLVQAGNSLKLSCAASGRNLAYYVMGWFRQAPGREREPVATLTRGGDDTYCADSVKGRFTISSDNAKNTVYLQMNNLKPEDTAIYTCAARLAVLSSNTYCSGLWDYWGQGTQVTVSS

>  <Measured attribute>
ELISA ratio coated/uncoated

>  <Test result>
4.72

$$$$
>  <Binder>
1CL88 (VHH, pMECS VHH-HA-His6; TG1 periplasmic extract) VHH: QVQLQESGGGLVQAGGSLRLSCAASGRIFSNSAMGWFRQVLGKEREFVAAISENSSILYYTASVKGRFTISRDNDKNTVYLQMTSLKAEDTAVYYCAGYGSTTIRTTTRPTKWGQGTQVTVSS

>  <Measured attribute>
ELISA ratio coated/uncoated

>  <Test result>
3.42

$$$$
>  <Binder>
2CL92 (VHH, pMECS VHH-HA-His6; TG1 periplasmic extract) VHH: QVQLQESGGGSVQAGDSLRLSCAASGRTFSGYAMGWFRQAPGKEREFVATISTSGSSTYYADSVKGRFTISRDNAKKSVYLQINSLKTEDAAVYYCAARLSFDNTAFYTSAIRYSYWGQGTQVTVSS

>  <Measured attribute>
ELISA ratio coated/uncoated

>  <Test result>
11.4

$$$$
>  <Binder>
2CL71 (VHH, pMECS VHH-HA-His6; TG1 periplasmic extract) VHH: QVQLQESGGGLVQAGGSLRLSCAASGLTFGRYAMGWFRQVPGLEREFIARISRSGDNTGYADSVKGRFTVSRDSAKSTVYLQMNSLKTEDTAVYYCAAGTSWVPGHNANAYDYWGQGTQVTVSS

>  <Measured attribute>
ELISA ratio coated/uncoated

>  <Test result>
5.33

$$$$
>  <Binder>
2CL30 (VHH, pMECS VHH-HA-His6; TG1 periplasmic extract) VHH: QVQLQESGGGSVQAGGSLRLSCAASGRTFSDYAMGWFRQVPGLEREFVARISRSGDSTGYADSVKGRFTVSRDNAKNTVYLQMNSLKTEDTAVYYCAATTSWLPGHNANVYDYWGQGTQVTVSS

>  <Measured attribute>
ELISA ratio coated/uncoated

>  <Test result>
8.28

$$$$
>  <Binder>
2CL91 (VHH, pMECS VHH-HA-His6; TG1 periplasmic extract) VHH: QVQLQESGGGLVQAGDSLRLSCTASERTFSNYAMGWFRLAPGKERKFVAAISTSGGTTDYVDSVKGRFTISRDNAKNTVYLQMNSLKPEDTAVYYCAARLDFSSTDLYTTAPRYPYWGQGTQVTVSS

>  <Measured attribute>
ELISA ratio coated/uncoated

>  <Test result>
5.56

$$$$
>  <Binder>
1CL54 (VHH, pMECS VHH-HA-His6; TG1 periplasmic extract) VHH: QVQLQESGGGLAQAGASLRLSCAGSGNNFEHYAVAWFRQDAPGKERDFVAAIRDYGDRTRYDDSVKGRFTISRDNAKSMVYLEMNNLKPKDAAVYYCAAGPLNDYLEVTPLVYTYWGQGTQVTVSS

>  <Measured attribute>
ELISA ratio coated/uncoated

>  <Test result>
17

$$$$

Reference source for all entries: patent US20220119472A1
